Provenance of the data: ChEMBL document CHEMBL4689842

# Test system: HEK-293T
# ASSAY INFO: Incucyte cell viability with HEK293T; note: filed as whole numbers so only -1 and 0 and 1 occur
# Format: toxicity, cell-based
# PROTOCOL CONDITIONS: human, 18 h, 10 µM, compound concentration 10 uM, replicate number 1, timepoint 18 hours
EXPERIMENTAL ENDPOINT: Growth Rate
# print the numeric value only

Consider the reported Growth Rate for these compounds:
[[record]]
record_smiles = "O=C(O)Cn1c(C(=O)Nc2nc(-c3ccccc3Cl)cs2)cc2ccccc21"
assay_system = "HEK-293T"
endpoint_value = 1

[[record]]
record_smiles = "O=C([O-])c1cc2ccccc2c(Cc2c(O)c(C(=O)[O-])cc3ccccc23)c1O.[Na+].[Na+]"
assay_system = "HEK-293T"
endpoint_value = 1


Lab book: Growth Rate of "O=C(NCc1ncc(C(F)(F)F)cc1Cl)c1ccc2c(c1)C1(CCS(=O)(=O)CC1)[C@@H](C1CC1)N2S(=O)(=O)c1ccc(F)cc1" noted as 0

###

Each record here notes measured Growth Rate.
# Test system: HEK-293T
# ASSAY INFO: Incucyte cell viability with HEK293T; note: filed as whole numbers so only -1 and 0 and 1 occur
# Assay type: toxicity, cell-based
# PROTOCOL CONDITIONS: human, 6 h, 10 µM, compound concentration 10 uM, replicate number 2, timepoint 6 hours

Consider the reported Growth Rate for these compounds:
[[record]]
record_smiles = "CO[C@@H](C)c1c(Nc2ccc([C@H](N(C)C(=O)C3CCS(=O)(=O)CC3)C(F)(F)F)cc2)cnc2cc(Cl)nn12"
endpoint_value = 0

[[record]]
record_smiles = "CCOc1cn(-c2ccc(F)cc2C)nc1C(=O)Nc1ccc(Oc2ccnc3cc(OC)c(OC)cc23)c(F)c1"
endpoint_value = 0

[[record]]
record_smiles = "CN1CCN(Cc2ccc(Nc3ncc(Cl)c(Nc4ccccc4S(=O)(=O)N(C)C)n3)cc2)CC1"
endpoint_value = 0

[[record]]
record_smiles = "C[C@]1(C(=O)N(CCCC(=O)O)Cc2cccc(Cl)c2)CCN1C(=O)c1csc2ccccc12"
endpoint_value = 0

[[record]]
record_smiles = "COc1ccc(S(=O)(=O)c2cc(OC)ccc2S(=O)(=O)c2ccc([C@H](C)NS(C)(=O)=O)cc2)cc1"
endpoint_value = 1


Lab book: Growth Rate of "S=C=Nc1cccc(NC(=S)NCCCCNC(=S)Nc2cccc(N=C=S)c2)c1" noted as 1

Lab book: Growth Rate of "COC(=O)/C=C/c1cccc(N(Cc2ccc(-c3ccc(N(C)C)cc3)cc2)C(=O)C2CCCCC2)c1" noted as 0

Lab book: Growth Rate of "O=C(O)Cn1c(C(=O)Nc2nc(-c3ccccc3Cl)cs2)cc2ccccc21" noted as 0

Lab book: Growth Rate of "COCCOc1nc(-c2ccc(Cl)nc2)nc2c1CN(C(=O)c1ncn3ccccc13)CC2" noted as 0

Lab book: Growth Rate of "C[C@H](NC[C@H](O)CP(=O)(O)CC1CCCCC1)c1ccc(Cl)c(Cl)c1.Cl" noted as 1

Lab book: Growth Rate of "O=C(O)CC/C=C\C[C@@H]1CO[C@H](c2ccccc2Cl)O[C@@H]1c1ccccc1O" noted as 0

###

# Test system: Fibroblast
# ASSAY INFO: Multiplex assay against human fibroblast
# Assay type: toxicity, cell-based
# PROTOCOL CONDITIONS: 24 h, 1 µM, compound concentration 1 uM, replicate 1
1 if Population Healthy Nuclei (%) is below 50%. -1 if not; exact matches included in -1.

Sample answers from the record:
[[record]]
compound = "Cc1ccc(C)c(Oc2ccncc2C(=O)N2CCN(C3CC3)c3ccccc32)c1"
assigned_category = -1

[[record]]
compound = "O=c1[nH]c2ccccc2n1C1CCN(Cc2ccc(-c3[nH]c4cc5ncnc5cc4nc3-c3ccccc3)cc2)CC1"
assigned_category = 1

[[record]]
compound = "CC(C)(C)NC[C@H](O)COc1nsnc1N1CCOCC1 [TIMOLOL]"
assigned_category = -1

[[record]]
compound = "CCc1nn(CCCN2CCN(c3cccc(Cl)c3)CC2)c(=O)n1CCOc1ccccc1.Cl [NEFAZODONE HYDROCHLORIDE]"
assigned_category = -1

[[record]]
compound = "COc1cc2ncn(-c3cc(OCc4ccccc4C(F)(F)F)c(C(N)=O)s3)c2cc1OC [GW843682X]"
assigned_category = 1


Prompt: Could you please tell me whether Population Healthy Nuclei (%) recorded for "C=CC(=O)Nc1cccc(Oc2nc(Nc3ccc(N4CCN(C)CC4)cc3OC)ncc2Cl)c1" is less than 50%?
Response: -1

Prompt: Could you please tell me whether Population Healthy Nuclei (%) recorded for CCCSc1nc(N[C@@H]2C[C@H]2c2ccc(F)c(F)c2)c2nnn([C@@H]3C[C@H](OCCO)[C@@H](O)[C@H]3O)c2n1 [TICAGRELOR] is less than 50%?
Response: -1

Prompt: Could you please tell me whether Population Healthy Nuclei (%) recorded for COC(=O)C1=C(C)NC(C)=C(C(=O)OCCCN2CCC(c3ccccc3)(c3ccccc3)CC2)[C@H]1c1cccc([N+](=O)[O-])c1 [NIGULDIPINE] is less than 50%?
Response: -1

Prompt: Could you please tell me whether Population Healthy Nuclei (%) recorded for COc1ccc(-c2ccc3ncc4c(c3c2)n(-c2ccc(N3CCNCC3)c(C(F)(F)F)c2)c(=O)n4C)cn1.O=C(O)/C=C\C(=O)O [BGT-226] is less than 50%?
Response: 1

Prompt: Could you please tell me whether Population Healthy Nuclei (%) recorded for Cc1cccc(CN2CCN(C(c3ccccc3)c3ccc(Cl)cc3)CC2)c1.Cl.Cl (centres undefined) is less than 50%?
Response: -1
